Listed below: melting point values for each entry.

- structure as smiles: "CNc1ccc(F)cc1[N+](=O)[O-]"
  melting point: "71 to 73 °C"
- structure as smiles: "CCn1c(C(C)=O)nc2ccccc21"
  melting point: "76 to 78 °C"
- structure as smiles: "NNC(=S)NC1CCC1"
  melting point: "96 to 98 °C"
- structure as smiles: "O=C(O)c1csc(-c2ccc(Cl)c(Cl)c2)n1"
  melting point: "212 to 214 °C"
- structure as smiles: "Fc1cccc(CBr)c1Cl"
  melting point: "39 to 41 °C"
- structure as smiles: "CN1Cc2ccccc2NC1=O"
  melting point: "200 to 203 °C"
- structure as smiles: "CCOc1ccccc1NC1=NCCS1"
  melting point: "55 to 57 °C"
- structure as smiles: "CCc1nc2ccccc2n1CC(=O)NN"
  melting point: "211 to 213 °C"
- structure as smiles: "CNc1nc(-c2ccccc2)no1"
  melting point: "124 to 126 °C"
- structure as smiles: "NC(=NO)c1cccc(Br)c1"
  melting point: "132 to 134 °C"
- structure as smiles: "CNc1ccccc1C#N"
  melting point: "66 to 68 °C"
- structure as smiles: "CNc1n[nH]c(N)c1S(C)(=O)=O"
  melting point: "171 to 173 °C"
- structure as smiles: "Nc1cnn(-c2cnc3ccccc3n2)c1"
  melting point: "169 to 171 °C"
- structure as smiles: "COC(=O)c1ccc(Cl)cc1S(=O)(=O)Cl"
  melting point: "63 to 65 °C"
- structure as smiles: "CN(C)Cc1cccc(N)c1"
  melting point: "40 to 42 °C"
